- ASSAY_EXPLANATION: in vivo
- CONDITION_DETAILS: female, C3H/HeN, mouse, plasma, ip, 80 µmol/kg
MEASUREMENT_KIND: Km (µM)

{"columns": ["CHEM_SMILES", "ASSAY_RESULT"],
 "data": [
  ["Cc1ccc2c(=O)c3cccc(CC(=O)O)c3oc2c1C", 220]
]}

###

- ASSAY_EXPLANATION: in vivo
- CONDITION_DETAILS: female, C3H/HeN, mouse, tumour, intraperitoneal, 23.7 umol/kg
MEASUREMENT_KIND: AUC (µM·h)

{"columns": ["CHEM_SMILES", "ASSAY_RESULT"],
 "data": [
  ["CC(=O)O[C@H]1C(=O)[C@@]2(C)[C@H]([C@H](OC(=O)c3ccccc3)[C@]3(O)C[C@H](OC(=O)[C@H](O)[C@@H](NC(=O)c4ccccc4)c4ccccc4)C(C)=C1C3(C)C)[C@]1(OC(C)=O)CO[C@@H]1C[C@@H]2O", 32.8]
]}

Cited source for all entries: patent EP1287854B1
